Test target: human GLP-1 receptor (human, UniProt P43220 24-463)
Run description: cell-based or functional assay
Where no end group is shown, it is not given here. [ ]: non-standard residue; d: D form. (mPEG)2 40 kDa = C3 = Cys(mPEG)240kDa, branched (mPEG)2, 40 kDa; Met(O) = CS(=O)CC[C@H](N)C(=O)O; Aib = CC(C)(N)C(=O)O
Mark Satisfied only when GLP-1R EC50 stays strictly below 30 nM. Values equal to the cut-off are Not satisfied.

A selection of reference data follows.
{"Binder": "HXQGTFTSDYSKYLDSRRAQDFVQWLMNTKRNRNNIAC (Aib at position 2; C2 = Cys(mPEG)20kDa at position 38; C-terminal amide) [OXM68]", "Category label": "Satisfied"}
{"Binder": "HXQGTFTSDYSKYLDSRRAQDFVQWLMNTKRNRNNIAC (Aib at position 2; methionine sulfoxide at position 27; C6 = Cys(mPEG)260kDa (60 kDa) at position 38; C-terminal amide) [OXM100]", "Category label": "Satisfied"}
{"Binder": "H[Aib]QGTFTSDYC((mPEG)2 40 kDa)KYLDSRRAQDFVQWL[Met(O)]NTKRNRNNIA-NH2 [OXM121]", "Category label": "Not satisfied"}
{"Binder": "H[Aib]QGTFTSDYSKYLDSRRAC((mPEG)2 40 kDa)DFVQWLMNTKRNRNNIA-NH2 [OXM103]", "Category label": "Satisfied"}

# ---- query binder ----
Input line: is_below(GLP-1R EC50, 30 nM) for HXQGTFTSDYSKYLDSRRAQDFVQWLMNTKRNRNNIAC (Aib at position 2; C3 = Cys(mPEG)240kDa (branched (mPEG)2, 40 kDa) at position 38; C-terminal amide) [OXM69] ?
Output line: Satisfied
